- METHOD DESCRIPTION: LAP4-GFP expression modulators in yeast, confirmation, cell-based, cherry picks, flow cytometry, mother/daughter gates (AID 2271);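 also: ratio of sample to DMSO plate mean so 100% equals DMSO level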
- STATED CONDITIONS: S. cerevisiae LAP4-GFP strain, 3 h, measured here: mother cell gate response, at 10 µM, stronger effect = higher value, 100 means same as DMSO control
PROPERTY LABEL: GFP response relative to DMSO (%)
Give the value, in units of %, as a plain number.

Some solved cases for reference:
O=S(=O)(c1ccc(NC(=S)N/N=C/c2cccc(Oc3ccccc3)c2)cc1)N1CCOCC1: 96.2
O=C(O)Cc1csc(-c2cccc(Oc3ccccc3)c2)n1: 106
Cc1noc2ncnc(Sc3ccccc3Cl)c12: 112
O=C(Nc1ccc(F)cc1)c1cc2cc(Cl)ccc2[nH]1: 94
COc1ccccc1C(=O)N1CCN(c2cccc(C(F)(F)F)c2)CC1: 94.6

Now for the compound whose GFP response relative to DMSO we want.
For record Cc1ccc(S(=O)(=O)CC#CCOC(=O)c2ccc([N+](=O)[O-])cc2)cc1 the listed GFP response relative to DMSO is 148
